A collection of molecules and their measured EC50
Test system: Influenza A virus
Experiment: Antiviral activity against Influenza A virus (A/PR/8/34(H1N1)) infected in MDCK cells assessed as virus-induced cytopathic effect after 72 hrs by microscopy
Type: functional, organism-based
Settings: A/Puerto Rico/8/1934(H1N1)
Quick note: give the figure in µM, leave out the unit.

>>> reported("CC(=O)N[C@H]1[C@H]([C@H](O)[C@H](O)CO)OC(C(=O)O)=C[C@@H]1NC(=N)N")
0.47
>>> reported("CCCCCCCCO[C@@H]1[C@@H](OCCCCCCCC)[C@@H](OC)O[C@H](COCCOCCOCCOCCOCc2cn([C@H]3C(=O)N[C@@H]4Cc5ccc(c(Cl)c5)Oc5cc6cc(c5O)Oc5ccc(cc5Cl)[C@@H](O[C@@H]5O[C@H](CO)[C@@H](O)[C@H](O)[C@H]5NC(C)=O)[C@@H]5NC(=O)[C@H](NC(=O)[C@@H]6NC(=O)[C@@H](NC4=O)c4cc(O)cc(c4)Oc4cc3ccc4O)c3ccc(O)c(c3)-c3c(O)cc(O)cc3[C@@H](C(=O)O)NC5=O)nn2)[C@H]1OCc1ccc(OC)cc1")
0.8

Please examine the following record next.
(Q) Give a short answer stating reported EC50 for CC(N)C12CC3CC(CC(C3)C1)C2 (stereo not given) .
(A) 4.6

###

Assay: Cytotoxicity against MDCK cells assessed as reduction in cell viability after 72 hrs by MTS assay
Format: cell-based, Canis lupus familiaris
Settings: dog
A collection of molecules and their measured CC50 at 72 h
Quick note: give the figure in µM, leave out the unit.

>>> reported("COc1ccc(CO[C@H]2[C@H](OC)[C@@H](OC)[C@@H](OC)O[C@@H]2COCCOCCOCCOCCOCc2cn([C@H]3C(=O)N[C@@H]4Cc5ccc(c(Cl)c5)Oc5cc6cc(c5O)Oc5ccc(cc5Cl)[C@@H](O[C@@H]5O[C@H](CO)[C@@H](O)[C@H](O)[C@H]5NC(C)=O)[C@@H]5NC(=O)[C@H](NC(=O)[C@@H]6NC(=O)[C@@H](NC4=O)c4cc(O)cc(c4)Oc4cc3ccc4O)c3ccc(O)c(c3)-c3c(O)cc(O)cc3[C@@H](C(=O)O)NC5=O)nn2)cc1")
47

Please examine the following record next.
(Q) Give a short answer stating reported CC50 at 72 h for "C.CCCCCCCCO[C@H]1[C@@H](OC)O[C@H](COCCOCCOCCOCCOCc2cn([C@H]3C(=O)N[C@@H]4Cc5ccc(c(Cl)c5)Oc5cc6cc(c5O)Oc5ccc(cc5Cl)[C@@H](O[C@@H]5O[C@H](CO)[C@@H](O)[C@H](O)[C@H]5NC(C)=O)[C@@H]5NC(=O)[C@H](NC(=O)[C@@H]6NC(=O)[C@@H](NC4=O)c4cc(O)cc(c4)Oc4cc3ccc4O)c3ccc(O)c(c3)-c3c(O)cc(O)cc3[C@@H](C(=O)O)NC5=O)nn2)[C@@H](O)[C@@H]1OCCCCCCCC" .
(A) 12

###

A collection of molecules and their measured MCC at 72 h
Assay: Cytotoxicity against MDCK cells assessed as change in cell morphology after 72 hrs by microscopy
Type: cell-based, Canis lupus familiaris
Details: dog

(Q) Give a short answer stating reported MCC at 72 h for CC(N)C12CC3CC(CC(C3)C1)C2 (stereo not given) .
(A) ≥ 500 µM

(Q) Give a short answer stating reported MCC at 72 h for "NC12CC3CC(CC(C3)C1)C2" .
(A) > 500 µM

(Q) Give a short answer stating reported MCC at 72 h for "CCCCCCCCO[C@@H]1[C@@H](OCCCCCCCC)[C@@H](OC)O[C@H](COCCOCCOCCOCCOCc2cn([C@H]3C(=O)N[C@@H]4Cc5ccc(c(Cl)c5)Oc5cc6cc(c5O)Oc5ccc(cc5Cl)[C@@H](O[C@@H]5O[C@H](CO)[C@@H](O)[C@H](O)[C@H]5NC(C)=O)[C@@H]5NC(=O)[C@H](NC(=O)[C@@H]6NC(=O)[C@@H](NC4=O)c4cc(O)cc(c4)Oc4cc3ccc4O)c3ccc(O)c(c3)-c3c(O)cc(O)cc3[C@@H](C(=O)O)NC5=O)nn2)[C@H]1OCc1ccc(OC)cc1" .
(A) 20 µM

(Q) Give a short answer stating reported MCC at 72 h for "NC(=O)c1ncn([C@@H]2O[C@H](CO)[C@@H](O)[C@H]2O)n1" .
(A) ≥ 20 µM

(Q) Give a short answer stating reported MCC at 72 h for "CC(=O)N[C@H]1[C@H]([C@H](O)[C@H](O)CO)OC(C(=O)O)=C[C@@H]1NC(=N)N" .
(A) > 100 µM
